System: serum cholesterol, LDL, HDL, triglycerides
test-name: Serum lipids and lipoprotein cholesterol in cholesterol-fed female New Zealand White rabbits
Type: in vivo
run-conditions: Oryctolagus cuniculus, po, 168 h; rabbit serum, diet 0.4%, 7 days; read-out: LDL cholesterol, percent of control
measure-name: response vs control in vivo at 0.4 % (%)
The answer is to be given in %; state only the numeric part.

Below, 5 compounds whose answers are already recorded.
- entry-smiles: "CC(C)(C)c1cc(OC[Si](C)(c2ccccc2)c2ccccc2)cc(C(C)(C)C)c1O"
  response vs control in vivo at 0.4 % / %: 71
- entry-smiles: "CC(C)(C)c1cc(OC[Si](C)(C)c2ccccc2)ccc1O"
  response vs control in vivo at 0.4 % / %: 81
- entry-smiles: "CC(C)(C)c1cc(OC[Si](C)(c2ccccc2)c2ccccc2)ccc1O"
  response vs control in vivo at 0.4 % / %: 165
- entry-smiles: "COc1ccc([Si](C)(COc2cc(C(C)(C)C)c(O)c(C(C)(C)C)c2)c2ccc(OC)cc2)cc1"
  response vs control in vivo at 0.4 % / %: 117
- entry-smiles: "CN(C)c1ccc([Si](C)(C)COc2cc(C(C)(C)C)c(O)c(C(C)(C)C)c2)cc1"
  response vs control in vivo at 0.4 % / %: 53

INPUT: # input compound: `CC(=O)Oc1ccc(OC[Si](C)(C)c2ccccc2)cc1C(C)(C)C` ; wanted: its response vs control in vivo at 0.4 %
OUTPUT: 97

INPUT: # input compound: `CC(C)(C)c1cc(OC[Si](C)(C)c2ccccc2)c(C(C)(C)C)cc1O` ; wanted: its response vs control in vivo at 0.4 %
OUTPUT: 105

INPUT: # input compound: `COc1ccc([Si](C)(C)COc2ccc(O)c(C(C)(C)C)c2)cc1` ; wanted: its response vs control in vivo at 0.4 %
OUTPUT: 89
